- Test system: MRSA COL (MB5393)
- Experiment Description: TarO Inhibitor/β-Lactam Synergy Assay (growth, OD600)
- Format: cell-based, Staphylococcus aureus
- Measurement Context: in combination with 8 μg/mL dicloxacillin (DCX)
Assign yes (1) whenever MITC95 TarO inhibitor + 8 μg/mL DCX; Bacteria: SA_MB5393 does not fall below 10 µM; assign no (0) whenever it does.

Worked examples, 4 molecules total:
# Query Smiles, Assigned Class
data = [
    ("C[C@H]1[C@@H](c2cc(C(F)(F)F)cc(C(F)(F)F)c2)OC(=O)N1C(=O)CCc1cccc2sccc12", "no (0)"),
    ("Cc1nc(C)c(CNC(=O)N2C(=O)O[C@H](c3cc(F)cc(C(F)(F)F)c3)[C@@H]2C)s1", "yes (1)"),
    ("CCOc1ccccc1CNC(=O)N1C(=O)O[C@H](c2cc(F)cc(C(F)(F)F)c2)[C@@H]1C", "no (0)"),
    ("Cc1cc(F)cc([C@H]2OC(=O)N(C(=O)CCc3cncc4ccccc34)[C@H]2C)c1", "yes (1)"),
]

Task item: Determine whether measured MITC95 TarO inhibitor + 8 μg/mL DCX; Bacteria: SA_MB5393 meets or exceeds 10 µM for C[C@H]1[C@@H](c2cc(F)cc(C(F)(F)F)c2)OC(=O)N1C(=O)NCc1cccc2nccnc12
Reply: no (0)

Task item: Determine whether measured MITC95 TarO inhibitor + 8 μg/mL DCX; Bacteria: SA_MB5393 meets or exceeds 10 µM for COc1cc([C@H]2OC(=O)N(C(=O)NCc3cccc4nccnc34)[C@H]2CO)cc(C(F)(F)F)c1
Reply: no (0)

Task item: Determine whether measured MITC95 TarO inhibitor + 8 μg/mL DCX; Bacteria: SA_MB5393 meets or exceeds 10 µM for C[C@H]1[C@@H](c2cc(F)cc(C(F)(F)F)c2)OC(=O)N1C(=O)N(O)Cc1cccc2ccccc12
Reply: yes (1)

FYI, the data here is from patent US11141410B2.
